- experiment_description: Solubility in biological media (FaSSIF, FeSSIF), HPLC detection
- Type: physicochemical
- experimental_parameters: FaSSIF (pH 6.5), 37° C., 2 h
quantity_kind: solubility at 2 h (µg/mL)

- compound: "O=C(N[C@@H](Cc1ccc(N2C(=O)C3(CC3)c3ccc(F)c(F)c32)cc1)C(=O)O)c1c(F)cccc1Cl [Crystal Form A]"
  endpoint_result: 2230

* * *

- experiment_description: Solid-state stability under high temperature, high humidity, light exposure and acceleration conditions (HPLC purity, XRPD form)
- Assay type: physicochemical
- experimental_parameters: solid state, High temperature 60° C., 7d

- molecule: "O=C(N[C@@H](Cc1ccc(N2C(=O)C3(CC3)c3ccc(F)c(F)c32)cc1)C(=O)O)c1c(F)cccc1Cl [Crystal Form A]"
  remaining at 168 h / %: 99.4
